Measured target: Nociceptin receptor (Mus musculus, UniProt P35377)
Sequence (P35377 whole entry): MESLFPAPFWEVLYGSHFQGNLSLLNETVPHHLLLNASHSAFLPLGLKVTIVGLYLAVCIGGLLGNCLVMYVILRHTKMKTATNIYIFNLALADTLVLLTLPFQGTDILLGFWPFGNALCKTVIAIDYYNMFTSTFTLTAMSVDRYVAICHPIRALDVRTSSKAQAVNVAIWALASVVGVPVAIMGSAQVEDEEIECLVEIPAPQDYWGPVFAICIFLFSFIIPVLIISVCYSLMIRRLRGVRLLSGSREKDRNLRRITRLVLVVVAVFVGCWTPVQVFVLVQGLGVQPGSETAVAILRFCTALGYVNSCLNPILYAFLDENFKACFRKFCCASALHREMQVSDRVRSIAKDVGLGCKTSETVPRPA
Run description: Affinity to nociceptin receptors on mouse forebrain membranes by [3H]NC-NH2 displacement.
pKi: −log10 of the molar value. Numbered stars: 1 amine (or outer) side, 2 acyl side, 3 side chain; on linkers, the order of the positions; unused ones are H or OH. Square brackets hold non-standard residues; d marks the D form. Peptide text beside a SMILES is read from it. X5 = N[C@@H](Cc1ccc(O)cc1)CN(CC(=O)[*:2])[*:1]; X1 = CC(C)C[C@H](N)CN(CC(=O)[*:2])[*:1]; Nphe = O=C(O)CNCc1ccccc1
Readout kind: pKi

Compound: Cc1ccc(CNCC(=O)NCC(=O)NCC(=O)N[C@@H](Cc2ccccc2)C(=O)N[C@H](C(=O)NCC(=O)N[C@@H](C)C(=O)N[C@@H](CCCN=C(N)N)C(=O)N[C@@H](CCCCN)C(=O)N[C@@H](CO)C(=O)N[C@@H](C)C(=O)N[C@@H](CCCN=C(N)N)C(=O)N[C@@H](CCCCN)C(N)=O)[C@@H](C)O)cc1
Observed: 5.60

Compound: CC(C)C[C@H](N)CNCC(=O)NCC(=O)N[C@@H](Cc1ccccc1)C(=O)N[C@H](C(=O)NCC(=O)N[C@@H](C)C(=O)N[C@@H](CCCN=C(N)N)C(=O)N[C@@H](CCCCN)C(=O)N[C@@H](CO)C(=O)N[C@@H](C)C(=O)N[C@@H](CCCN=C(N)N)C(=O)N[C@@H](CCCCN)C(N)=O)[C@@H](C)O (H-[X1]GFTGARKSARK-NH2)
Observed: 7.80

Compound: C[C@H](NC(=O)CNC(=O)[C@@H](NC(=O)[C@H](Cc1ccccc1)NC(=O)CNC(=O)CNC(=O)[C@@H](N)Cc1ccc(O)cc1)[C@@H](C)O)C(=O)N[C@@H](CCCN=C(N)N)C(=O)N[C@@H](CCCCN)C(=O)N[C@@H](CO)C(=O)N[C@@H](C)C(=O)N[C@@H](CCCN=C(N)N)C(=O)N[C@@H](CCCCN)C(N)=O (H-YGGFTGARKSARK-NH2)
Observed: 8.40

Compound: C[C@H](NC(=O)CNC(=O)[C@@H](NC(=O)[C@H](Cc1ccccc1)NC(=O)CNC(=O)CNC[C@@H](N)Cc1ccc(O)cc1)[C@@H](C)O)C(=O)N[C@@H](CCCN=C(N)N)C(=O)N[C@@H](CCCCN)C(=O)N[C@@H](CO)C(=O)N[C@@H](C)C(=O)N[C@@H](CCCN=C(N)N)C(=O)N[C@@H](CCCCN)C(N)=O (H-[X5]GFTGARKSARK-NH2)
Observed: 7.00

Compound: C[C@H](NC(=O)CNC(=O)[C@@H](NC(=O)[C@H](Cc1ccccc1)NC(=O)CNC(=O)CNC(=O)CNCc1ccccc1)[C@@H](C)O)C(=O)N[C@@H](CCCN=C(N)N)C(=O)N[C@@H](CCCCN)C(=O)N[C@@H](CO)C(=O)N[C@@H](C)C(=O)N[C@@H](CCCN=C(N)N)C(N)=O (H-[Nphe]GGFTGARKSAR-NH2)
Observed: 5.50

Compound: CC(C)C[C@H](NC(=O)[C@H](CCCCN)NC(=O)[C@H](CCCN=C(N)N)NC(=O)[C@H](C)NC(=O)[C@H](CO)NC(=O)[C@H](CCCCN)NC(=O)[C@H](CCCN=C(N)N)NC(=O)[C@H](C)NC(=O)CNC(=O)[C@@H](NC(=O)[C@H](Cc1ccccc1)NC(=O)CNC(=O)CNC(=O)CNCc1ccccc1)[C@@H](C)O)C(=O)N[C@@H](C)C(=O)N[C@@H](CC(N)=O)C(=O)N[C@@H](CCC(N)=O)C(N)=O
Observed: 6.90

* * *

Measured target: UniProtKB P35377
Run description: Affinity to nociceptin receptors on mouse forebrain membranes by [3H]NC-NH2 displacement.
Numbered stars: 1 amine (or outer) side, 2 acyl side, 3 side chain; on linkers, the order of the positions; unused ones are H or OH. Square brackets hold non-standard residues; d marks the D form. Peptide text beside a SMILES is read from it. X4 = Cc1ccc(C[C@H](N)CN(CC(=O)[*:2])[*:1])cc1; X2 = N[C@@H](Cc1ccccc1)CN(CC(=O)[*:2])[*:1]
Readout kind: Ki (µM)

Compound: C[C@H](NC(=O)CNC(=O)[C@@H](NC(=O)[C@H](Cc1ccccc1)NC(=O)CNC(=O)CNC[C@@H](N)Cc1ccccc1)[C@@H](C)O)C(=O)N[C@@H](CCCN=C(N)N)C(=O)N[C@@H](CCCCN)C(=O)N[C@@H](CO)C(=O)N[C@@H](C)C(=O)N[C@@H](CCCN=C(N)N)C(N)=O (H-[X2]GFTGARKSAR-NH2)
Measured target: UniProtKB P35377
Inequality sign: =
Observed: 0.398
--
Compound: C[C@H](NC(=O)CNC(=O)[C@@H](NC(=O)[C@H](Cc1ccccc1)NC(=O)CNC(=O)CNC[C@@H](N)Cc1ccccc1)[C@@H](C)O)C(=O)N[C@@H](CCCN=C(N)N)C(=O)N[C@@H](CCCCN)C(N)=O (H-[X2]GFTGARK-NH2)
Measured target: UniProtKB P35377
Inequality sign: >
Observed: 10
--
Compound: Cc1ccc(C[C@H](N)CNCC(=O)NCC(=O)N[C@@H](Cc2ccccc2)C(=O)N[C@H](C(=O)NCC(=O)N[C@@H](C)C(=O)N[C@@H](CCCN=C(N)N)C(=O)N[C@@H](CCCCN)C(=O)N[C@@H](CO)C(=O)N[C@@H](C)C(=O)N[C@@H](CCCN=C(N)N)C(=O)N[C@@H](CCCCN)C(N)=O)[C@@H](C)O)cc1 (H-[X4]GFTGARKSARK-NH2)
Measured target: UniProtKB P35377
Inequality sign: =
Observed: 0.631
--
Compound: Cc1ccc(C[C@H](N)C(=O)NCC(=O)NCC(=O)N[C@@H](Cc2ccccc2)C(=O)N[C@H](C(=O)NCC(=O)N[C@@H](C)C(=O)N[C@@H](CCCN=C(N)N)C(=O)N[C@@H](CCCCN)C(=O)N[C@@H](CO)C(=O)N[C@@H](C)C(=O)N[C@@H](CCCN=C(N)N)C(=O)N[C@@H](CCCCN)C(N)=O)[C@@H](C)O)cc1
Measured target: UniProtKB P35377
Inequality sign: =
Observed: 0.2

* * *

Listed next: entries and their corresponding pKi.
Measured target: Nociceptin receptor (Mus musculus)
Run description: Affinity to nociceptin receptors on mouse forebrain membranes by [3H]NC-NH2 displacement.
pKi: −log10 of the molar value. Peptide text beside a SMILES is read from it.

Compound: C[C@H](NC(=O)CNC(=O)[C@@H](NC(=O)[C@H](Cc1ccccc1)NC(=O)CNC(=O)CNC(=O)CNCc1ccc(O)cc1)[C@@H](C)O)C(=O)N[C@@H](CCCN=C(N)N)C(=O)N[C@@H](CCCCN)C(=O)N[C@@H](CO)C(=O)N[C@@H](C)C(=O)N[C@@H](CCCN=C(N)N)C(=O)N[C@@H](CCCCN)C(N)=O
Inequality sign: =
pKi: 5.50

Compound: CC(C)C[C@H](N)C(=O)NCC(=O)NCC(=O)N[C@@H](Cc1ccccc1)C(=O)N[C@H](C(=O)NCC(=O)N[C@@H](C)C(=O)N[C@@H](CCCN=C(N)N)C(=O)N[C@@H](CCCCN)C(=O)N[C@@H](CO)C(=O)N[C@@H](C)C(=O)N[C@@H](CCCN=C(N)N)C(=O)N[C@@H](CCCCN)C(N)=O)[C@@H](C)O (H-LGGFTGARKSARK-NH2)
Inequality sign: =
pKi: 8.60

Compound: CC(C)CNCC(=O)NCC(=O)NCC(=O)N[C@@H](Cc1ccccc1)C(=O)N[C@H](C(=O)NCC(=O)N[C@@H](C)C(=O)N[C@@H](CCCN=C(N)N)C(=O)N[C@@H](CCCCN)C(=O)N[C@@H](CO)C(=O)N[C@@H](C)C(=O)N[C@@H](CCCN=C(N)N)C(=O)N[C@@H](CCCCN)C(N)=O)[C@@H](C)O
Inequality sign: =
pKi: 5.60

Compound: C[C@H](NC(=O)CNC(=O)[C@@H](NC(=O)[C@H](Cc1ccccc1)NC(=O)CNC(=O)CNC(=O)[C@@H](N)Cc1ccccc1)[C@@H](C)O)C(=O)N[C@@H](CCCN=C(N)N)C(=O)N[C@@H](CCCCN)C(N)=O (H-FGGFTGARK-NH2)
Inequality sign: <
pKi: 5.00

* * *

Measured target: Nociceptin receptor (Mus musculus)
Run description: Affinity to nociceptin receptors on mouse forebrain membranes by [3H]NC-NH2 displacement.
Numbered stars: 1 amine (or outer) side, 2 acyl side, 3 side chain; on linkers, the order of the positions; unused ones are H or OH. Square brackets hold non-standard residues; d marks the D form. Peptide text beside a SMILES is read from it. X2 = N[C@@H](Cc1ccccc1)CN(CC(=O)[*:2])[*:1]; X3 = N[C@@H](CC1CCCCC1)CN(CC(=O)[*:2])[*:1]

Molecule: C[C@H](NC(=O)CNC(=O)[C@@H](NC(=O)[C@H](Cc1ccccc1)NC(=O)CNC(=O)CNC[C@@H](N)CC1CCCCC1)[C@@H](C)O)C(=O)N[C@@H](CCCN=C(N)N)C(=O)N[C@@H](CCCCN)C(=O)N[C@@H](CO)C(=O)N[C@@H](C)C(=O)N[C@@H](CCCN=C(N)N)C(=O)N[C@@H](CCCCN)C(N)=O (H-[X3]GFTGARKSARK-NH2)
Quantity unit: nM
Ki: 316
--
Molecule: C[C@H](NC(=O)CNC(=O)[C@@H](NC(=O)[C@H](Cc1ccccc1)NC(=O)CNC(=O)CNC[C@@H](N)Cc1ccccc1)[C@@H](C)O)C(=O)N[C@@H](CCCN=C(N)N)C(=O)N[C@@H](CCCCN)C(=O)N[C@@H](CO)C(=O)N[C@@H](C)C(=O)N[C@@H](CCCN=C(N)N)C(=O)N[C@@H](CCCCN)C(N)=O (H-[X2]GFTGARKSARK-NH2)
Quantity unit: nM
Ki: 10
--
Molecule: C[C@H](NC(=O)CNC(=O)[C@@H](NC(=O)[C@H](Cc1ccccc1)NC(=O)CNC(=O)CNC(=O)[C@@H](N)Cc1ccccc1)[C@@H](C)O)C(=O)N[C@@H](CCCN=C(N)N)C(=O)N[C@@H](CCCCN)C(=O)N[C@@H](CO)C(=O)N[C@@H](C)C(=O)N[C@@H](CCCN=C(N)N)C(N)=O (H-FGGFTGARKSAR-NH2)
Quantity unit: nM
Ki: 25.1
--
Molecule: CC(C)C[C@H](NC(=O)[C@H](CCCCN)NC(=O)[C@H](CCCN=C(N)N)NC(=O)[C@H](C)NC(=O)[C@H](CO)NC(=O)[C@H](CCCCN)NC(=O)[C@H](CCCN=C(N)N)NC(=O)[C@H](C)NC(=O)CNC(=O)[C@@H](NC(=O)[C@H](Cc1ccccc1)NC(=O)CNC(=O)CNC[C@@H](N)Cc1ccccc1)[C@@H](C)O)C(=O)N[C@@H](C)C(=O)N[C@@H](CC(N)=O)C(=O)N[C@@H](CCC(N)=O)C(N)=O (H-[X2]GFTGARKSARKLANQ-NH2)
Quantity unit: nM
Ki: 20

Entry source: ChEMBL document CHEMBL1133453
